Test protocol: soluble on expression in E. coli; label from the status in PepcDB or PDB records
Measurement label: soluble on expression in E. coli

MNTFVFLPLAFFVLLESFEAQEPPGPTARLNMLDNYMKRLNLTDIHFSDPGGIVKVDTVVNKYQPLTEEEIIRKMKKTVNDTAYDIANGKDPDLIEKLDKKTVQLPKPIRSRPQF: not soluble
MYHSLFESLCMVPDPRIERKKIYPLDFLLLIVFLSTLSGNTSWYEIEDYAEEYEEELKSLYEMLTGHQLMHTMPSHDTLNRSISLLDVEAFEGAYKRWIEGFISATSGKHICIDGKTMRGVKKLSFDTQSHVVSAFSPQDMCSLAQLYIDRKTNEIPAIHQLLDLLDLNGAVVSIDAIGTQTAIAEQIIDKGGNYVLCVKANQSLSLQEIEAYFCPLFQKHILLDEQTELSHGRIETRRYESILNPLEIEANEVLTRWKGLRSIHKVVRKRRDKKSDKTSEEVAYYISSLTDVSSLKQAIRGHWAIENKLHHCLDVYFGHDASHKRTRNVAQIMDIIQKINLLIIERLKTNMKSSIPRIQKKLARMKPQQLITIQF: not soluble
